# measurementTarget: HCV polymerase (NS5B570n-Con1) (Hepatitis C virus genotype 1b)
# Construct: contains a 21 amino acid deletion at the C-terminus relative to the full-length HCV polymerase; 6-histidine (N)
# methodDescription: HCV NS5B RNA polymerase activity assay
Assign a class from recorded IC50; defined classes: range A (below 50 nM), range B (50 nM to below 400 nM), range C (400 nM or more)

{"columns": ["molecule", "measurementTarget", "cat"],
 "data": [
  ["COc1cc(C(=O)N2CCC(C#N)CC2)c(-c2ccc[nH]c2=O)cc1C(C)(C)C", "HCV polymerase (NS5B570n-Con1) (Hepatitis C virus genotype 1b)", "range C"],
  ["COc1cc(CN2CCCCC2=O)c(-c2ccc[nH]c2=O)cc1C(C)(C)C", "HCV polymerase (NS5B570n-Con1) (Hepatitis C virus genotype 1b)", "range B"],
  ["COc1cc(C(=O)NCC#N)c(-c2ccc[nH]c2=O)cc1C(C)(C)C", "HCV polymerase (NS5B570n-Con1) (Hepatitis C virus genotype 1b)", "range A"],
  ["COc1cc(C(=O)O)c(-c2ccc[nH]c2=O)cc1C(C)(C)C", "HCV polymerase (NS5B570n-Con1) (Hepatitis C virus genotype 1b)", "range A"],
  ["COc1cc(C#N)c(-c2ccc[nH]c2=O)cc1C(C)(C)C", "HCV polymerase (NS5B570n-Con1) (Hepatitis C virus genotype 1b)", "range B"],
  ["COC(=O)CCc1cc(OC)c(C(C)(C)C)cc1-c1ccc[nH]c1=O", "HCV polymerase (NS5B570n-Con1) (Hepatitis C virus genotype 1b)", "range C"]
]}

Band of `COc1cc(C(=O)N(C)Cc2ccc(F)cc2)c(-c2ccc[nH]c2=O)cc1C(C)(C)C` ?
range C

Determine which band this molecule sits in: COc1cc(CN(CC2CCNC2)S(C)(=O)=O)c(-c2ccc[nH]c2=O)cc1C(C)(C)C (centres unmarked)
range B

Using the reported IC50, which band applies to `COc1cc(CNC(C)=O)c(-c2ccc[nH]c2=O)cc1C(C)(C)C` ?
range B
